Hello, the source for this data is PubChem BioAssay AID1159580, in case you need it.

# Assay procedure: chemical genetic growth profiling, strain panel (AID 1159580);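 further: tested at 20 µM; growth read once vehicle control cultures reached saturation at 30 °C; 1 = growth at the plate median or of vehicle wells; lower values mean less growth of the strain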
# Measurement parameters: S. cerevisiae deletion strains, growth OD, locus YMR219W, strain ESC1, active compounds read low
The campaign covered roughly 5,500 compounds. About 2,000 (36%) were called active. Another 18% or so got no clear call; they are omitted. This is one part of the list.

Compound	normalized growth
COC(=O)c1cc([N+](=O)[O-])ccc1N1CCOCC1	1
COc1cc2nc(-c3cccs3)oc(=O)c2cc1OC	0.994
CCC(=O)Nc1cc(OC)cc(OC)c1	0.999
COc1cc(C=Nc2ccc(F)cc2)cc(OC)c1OC	0.985
CC(C)(C)c1ccc(-c2cc(N)c(C(N)=O)s2)cc1	0.996
O=[N+]([O-])c1ccc(-c2nn[nH]n2)cc1	0.994
COc1cc([N+](=O)[O-])ccc1N1CCCC1	0.934
O=C(Nc1cccnc1)c1cccc(Cl)c1Cl	0.992
N#Cc1ccc(Oc2ccc(Cl)cc2)nc1	0.971
Cn1c(=O)c(-c2ccccc2)c(O)c2ccccc21	0.945
OC(CSc1ccccc1)CN1CCN(c2ccc(C(F)(F)F)cn2)CC1 (configuration not stated)	1
N#C/C(=C\N(CCS(=O)(=O)c1ccc(Cl)cc1)Cc1cccs1)S(=O)(=O)c1ccc(Cl)cc1	1
